Values from ChEMBL document CHEMBL1961873

Examples of molecules with documented inhibition follow.
Biological target: Leukocyte tyrosine kinase receptor (Homo sapiens);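 also: each value is the mean inhibition of LTK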
Details: at 1 µM
The reply should be a number in %, with the unit left off.

Example cases with answers are listed next.
{"Mol": "Cc1cccc(Nc2ncc(-c3ccccc3)o2)c1", "inhibition [%]": 2.88}
{"Mol": "Cc1cccc2c1NC(=O)/C2=N\\Nc1ccc(S(N)(=O)=O)cc1", "inhibition [%]": 2}
{"Mol": "CCOc1ccc2c(-c3ccnc(Nc4cccc(C(F)(F)F)c4)n3)cnn2n1", "inhibition [%]": 1.96}
{"Mol": "COc1cc(N2CCN(C(C)C)CC2)ccc1Nc1nc(Nc2ccc(F)cc2C(N)=O)c2cc[nH]c2n1", "inhibition [%]": 96}
{"Mol": "Cc1ccc2c(-c3ccnc(Nc4ccccc4)n3)c(-c3ccc(F)cc3)nn2n1", "inhibition [%]": 2.78}

Memo: CNC(=O)c1cccc(C#Cc2cncnc2Nc2ccc(OCc3cccc(F)c3)c(Cl)c2)c1 , reported inhibition: 0.16

Memo: c1ccc(-c2nc3n(c2-c2ccc4c(c2)OCO4)CCC3)nc1 , reported inhibition: 0.36

Memo: [O-][S+]1CCN(Cc2ccc(-c3ccc4ncnc(Nc5ccc(OCc6cccc(F)c6)c(Cl)c5)c4c3)o2)CC1 , reported inhibition: 7.31
